Just for reference, patent US8609661B2 is where these values come from.

Target: human wildtype CFTR (Homo sapiens)
Construct: expressed in transfected cells; host or cells: Fischer rat thyroid (FRT) cells
Sequence (P13569 whole entry): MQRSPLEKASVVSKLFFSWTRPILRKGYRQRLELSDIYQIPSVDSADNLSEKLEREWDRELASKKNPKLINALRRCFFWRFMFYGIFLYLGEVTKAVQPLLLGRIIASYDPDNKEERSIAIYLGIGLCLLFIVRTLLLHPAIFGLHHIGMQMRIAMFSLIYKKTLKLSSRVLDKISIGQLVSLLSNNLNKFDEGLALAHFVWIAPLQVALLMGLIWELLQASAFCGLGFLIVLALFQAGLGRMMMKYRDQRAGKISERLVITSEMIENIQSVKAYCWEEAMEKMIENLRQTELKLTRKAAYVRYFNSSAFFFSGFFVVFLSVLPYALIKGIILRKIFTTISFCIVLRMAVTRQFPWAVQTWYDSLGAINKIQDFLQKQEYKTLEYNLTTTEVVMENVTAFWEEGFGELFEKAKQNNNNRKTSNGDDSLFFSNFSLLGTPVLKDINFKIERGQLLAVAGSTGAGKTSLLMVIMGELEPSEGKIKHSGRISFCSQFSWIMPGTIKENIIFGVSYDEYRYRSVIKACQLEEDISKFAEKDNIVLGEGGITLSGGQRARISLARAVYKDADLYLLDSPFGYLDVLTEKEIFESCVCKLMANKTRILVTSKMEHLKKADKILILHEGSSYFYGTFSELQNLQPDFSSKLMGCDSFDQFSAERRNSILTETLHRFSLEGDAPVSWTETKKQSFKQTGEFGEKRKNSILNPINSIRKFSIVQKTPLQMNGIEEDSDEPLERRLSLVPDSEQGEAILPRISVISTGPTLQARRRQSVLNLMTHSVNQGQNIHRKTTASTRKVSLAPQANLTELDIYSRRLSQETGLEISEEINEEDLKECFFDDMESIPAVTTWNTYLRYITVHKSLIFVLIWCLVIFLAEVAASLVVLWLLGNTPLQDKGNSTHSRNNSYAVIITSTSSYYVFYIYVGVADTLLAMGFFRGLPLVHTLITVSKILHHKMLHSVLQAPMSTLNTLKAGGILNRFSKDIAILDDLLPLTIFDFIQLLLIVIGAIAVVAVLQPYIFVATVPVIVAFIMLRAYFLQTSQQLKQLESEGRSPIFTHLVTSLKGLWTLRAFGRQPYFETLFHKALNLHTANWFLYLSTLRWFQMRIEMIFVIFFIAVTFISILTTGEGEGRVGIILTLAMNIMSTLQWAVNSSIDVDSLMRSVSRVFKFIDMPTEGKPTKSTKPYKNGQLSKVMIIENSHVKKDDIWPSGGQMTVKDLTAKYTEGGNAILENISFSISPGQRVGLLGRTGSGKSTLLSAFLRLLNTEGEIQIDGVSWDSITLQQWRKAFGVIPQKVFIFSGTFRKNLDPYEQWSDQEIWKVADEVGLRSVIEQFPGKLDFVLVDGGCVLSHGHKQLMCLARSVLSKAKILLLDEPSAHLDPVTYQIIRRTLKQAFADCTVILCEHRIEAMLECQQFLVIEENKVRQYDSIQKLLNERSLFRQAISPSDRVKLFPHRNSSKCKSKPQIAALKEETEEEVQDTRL
Experiment: Short-circuit (apical membrane) chloride current in CFTR-expressing FRT cells, basolateral membrane permeabilized
Type: cell-based
Details: CFTR stimulated by CPT-cAMP; transepithelial chloride gradient, amphotericin B; read-out: IC50 for inhibition of CFTR chloride conductance
pIC50: −log10 of the molar value.
readout.kind: pIC50

>  <compound>
Cc1ccc(C2Nc3ccccc3-n3c(-c4ccccc4)c4c(=O)n(C)c(=O)n(C)c4c32)o1 (racemic)

>  <readout.kind>
pIC50

>  <test.result>
~7.05

$$$$

====

Molecular target: human wildtype CFTR (Homo sapiens)
Construct: expressed in transfected cells; host or cells: Fischer rat thyroid (FRT) cells
Assay: Fluorescence platereader assay of CFTR-mediated iodide influx (YFP quenching) in FRT cells
Format: cell-based
Settings: FRT; Table 2; screening, 25 μM; read-out: % Inhibition at 25 μM
readout.kind: inhibition at 25 µM (%)

>  <molecule>
Cc1ccc(-c2c3c(=O)n(C)c(=O)n(C)c3c3n2-c2ccccc2NC3c2cccc(F)c2F)cc1 (stereo not shown)

>  <qual>
=

>  <test.result>
31

$$$$
>  <molecule>
Cc1ccccc1-c1c2c(=O)n(C)c(=O)n(C)c2c2n1-c1ccccc1NC2c1cccc(O)c1 (stereo not shown)

>  <qual>
=

>  <test.result>
74

$$$$
>  <molecule>
Cc1ccccc1-c1c2c(=O)n(C)c(=O)n(C)c2c2n1-c1ccccc1NC2c1cccc(F)c1F (stereo not shown)

>  <qual>
>

>  <test.result>
95

$$$$
>  <molecule>
COc1cc(O)ccc1C1Nc2ccccc2-n2c(-c3ccccc3)c3c(=O)n(C)c(=O)n(C)c3c21 (stereo not shown)

>  <qual>
=

>  <test.result>
56

$$$$
>  <molecule>
Cc1cc2c(cc1C)-n1c(-c3ccccc3)c3c(=O)n(C)c(=O)n(C)c3c1C(c1cccs1)N2 (stereo not shown)

>  <qual>
=

>  <test.result>
61

$$$$
>  <molecule>
COc1ccc(-c2c3c(=O)n(C)c(=O)n(C)c3c3n2-c2ccccc2NC3c2ccccc2Cl)cc1 (stereo not shown)

>  <qual>
=

>  <test.result>
47

$$$$
>  <molecule>
Cc1cccc(-c2c3c(=O)n(C)c(=O)n(C)c3c3n2-c2ccccc2NC3c2cccc(F)c2)c1 (stereo not shown)

>  <qual>
=

>  <test.result>
93

$$$$
>  <molecule>
COc1cc(C2Nc3ccccc3-n3c(-c4ccccc4)c4c(=O)n(C)c(=O)n(C)c4c32)ccc1O (stereo not shown)

>  <qual>
=

>  <test.result>
64

$$$$
>  <molecule>
Cn1c(=O)c2c(-c3ccccc3)n3c(c2n(C)c1=O)C(c1cccc(F)c1)Nc1ccccc1-3 (stereo not shown)

>  <qual>
=

>  <test.result>
76

$$$$
>  <molecule>
Cc1cc2c(cc1C)-n1c(-c3ccccc3F)c3c(=O)n(C)c(=O)n(C)c3c1C(c1ccco1)N2 (stereo not shown)

>  <qual>
=

>  <test.result>
44

$$$$
>  <molecule>
Cn1c(=O)c2c(-c3ccccc3)n3c(c2n(C)c1=O)C(c1cccc(O)c1)Nc1ccccc1-3 (stereo not shown)

>  <qual>
=

>  <test.result>
74

$$$$
>  <molecule>
Cc1cccc(-c2c3c(=O)n(C)c(=O)n(C)c3c3n2-c2ccccc2NC3c2cccc([N+](=O)[O-])c2)c1 (stereo not shown)

>  <qual>
=

>  <test.result>
94

$$$$
>  <molecule>
Cn1c(=O)c2c(-c3ccccc3)n3c(c2n(C)c1=O)C(c1cccc(F)c1F)Nc1ccccc1-3 (stereo not shown)

>  <qual>
=

>  <test.result>
93

$$$$
>  <molecule>
COc1cc(C2Nc3ccccc3-n3c(-c4cccc(C)c4)c4c(=O)n(C)c(=O)n(C)c4c32)ccc1O (stereo not shown)

>  <qual>
=

>  <test.result>
74

$$$$
>  <molecule>
COc1ccc(-c2c3c(=O)n(C)c(=O)n(C)c3c3n2-c2ccccc2NC3c2ccc(C)o2)cc1 (stereo not shown)

>  <qual>
=

>  <test.result>
68

$$$$
>  <molecule>
Cc1cc2c(cc1C)-n1c(-c3ccccc3)c3c(=O)n(C)c(=O)n(C)c3c1C(c1cccc(O)c1)N2 (stereo not shown)

>  <qual>
=

>  <test.result>
92

$$$$

====

The following compounds are shown together with reported inhibition at 5 µM values.
Target: human wildtype CFTR (Homo sapiens)
Construct: expressed in transfected cells; host or cells: Fischer rat thyroid (FRT) cells
Experiment: Fluorescence platereader assay of CFTR-mediated iodide influx (YFP quenching) in FRT cells
Assay type: cell-based
Conditions: FRT; Table 2; screening, 5 μM; read-out: % Inhibition at 5 μM
Method: A. Cell lines and compounds—Fischer rat thyroid (FRT) cells co-expressing human wildtype CFTR and the halide indicator YFP-H148Q/1152L were generated as described (see, e.g., Ma et al., J. Clin. Invest. 110:1651-1658 (2002)). […] B. Compound Screening—Assays were performed using an automated screening platform (Beckman) equipped with FLUOStar fluorescence platereaders (BMG Lab Technologies, Offenburg, Germany) as described (see Ma et al., supra). […]

>  <compound>
CCOc1ccccc1C1Nc2ccccc2-n2c(-c3cccc(C)c3)c3c(=O)n(C)c(=O)n(C)c3c21 (centres unmarked)

>  <unit.abbrev>
%

>  <qual>
<

>  <inhibition at 5 µM>
10

$$$$
>  <compound>
Cn1c(=O)c2c(-c3ccccc3F)n3c(c2n(C)c1=O)C(c1cccs1)Nc1ccccc1-3 (centres unmarked)

>  <unit.abbrev>
%

>  <qual>
=

>  <inhibition at 5 µM>
47

$$$$
>  <compound>
COc1ccc(-c2c3c(=O)n(C)c(=O)n(C)c3c3n2-c2ccccc2NC3c2cccc(C)c2)cc1 (centres unmarked)

>  <unit.abbrev>
%

>  <qual>
<

>  <inhibition at 5 µM>
10

$$$$
>  <compound>
COc1ccc(-c2c3c(=O)n(C)c(=O)n(C)c3c3n2-c2ccccc2NC3c2ccccc2)cc1 (centres unmarked)

>  <unit.abbrev>
%

>  <qual>
<

>  <inhibition at 5 µM>
10

$$$$
>  <compound>
Cc1ccccc1C1Nc2ccccc2-n2c(-c3ccccc3)c3c(=O)n(C)c(=O)n(C)c3c21 (centres unmarked)

>  <unit.abbrev>
%

>  <qual>
=

>  <inhibition at 5 µM>
13

$$$$

====

Target: human wildtype CFTR (Homo sapiens)
Construct: expressed in transfected cells; host or cells: Fischer rat thyroid (FRT) cells
Test: Fluorescence platereader assay of CFTR-mediated iodide influx (YFP quenching) in FRT cells
Assay type: cell-based
Conditions: FRT; Table 2; screening, 5 μM; read-out: % Inhibition at 5 μM
readout.kind: inhibition at 5 µM

>  <compound>
COc1ccc(O)c(C2Nc3ccccc3-n3c(-c4ccccc4C)c4c(=O)n(C)c(=O)n(C)c4c32)c1 (stereo not shown)

>  <readout.kind>
inhibition at 5 µM

>  <test.result>
< 10%

$$$$
>  <compound>
Cn1c(=O)c2c(-c3ccccc3)n3c(c2n(C)c1=O)C(c1ccccc1F)Nc1ccccc1-3 (stereo not shown)

>  <readout.kind>
inhibition at 5 µM

>  <test.result>
61%

$$$$
>  <compound>
COc1cccc(C2Nc3ccccc3-n3c(-c4ccc(Cl)cc4)c4c(=O)n(C)c(=O)n(C)c4c32)c1 (stereo not shown)

>  <readout.kind>
inhibition at 5 µM

>  <test.result>
< 10%

$$$$
>  <compound>
Cc1ccc(-c2c3c(=O)n(C)c(=O)n(C)c3c3n2-c2ccccc2NC3c2cccs2)cc1 (stereo not shown)

>  <readout.kind>
inhibition at 5 µM

>  <test.result>
< 10%

$$$$
